Attribute: melting point

Here's what some known entries look like.
# molecule, melting point
rows = [
    ("COc1nc2cccnc2n1-c1ccc(-c2nc(-c3nccs3)cn2-c2ccc(C)nc2)cc1 [Example 81]", "190 to 192 °C"),
    ("c1cncc(-n2cc(-c3nccs3)nc2-c2ccc(-n3ccc4cccnc43)cc2)c1 [Example 23]", "195 to 197 °C"),
    ("c1ccc(-c2cn(-c3cccnc3)c(-c3ccc(-n4ccc5cccnc54)cc3)n2)nc1 [Example 7]", "174 to 176 °C"),
]

Could you now consider this next molecule?
Prompt: Recall and state the measured melting point for Cc1ccc(-n2cc(-c3cscn3)nc2-c2ccc(-n3c(C(F)(F)F)nc4cccnc43)cc2)cn1 [Example 99] .
Response: 201 to 204 °C

Ref: patent US20080090834A1
